Experimental Details: Cytotoxicity against human HeLa cells assessed as alteration of normal cell morphology by microscopic analysis
Format: cell-based
Endpoint Name: MCC (µM)
Reply with just the number (in µM).

Recorded results for 5 compounds are shown here.
{"Structure Smiles": "CSc1nc(NCCCCNc2ccnc3cc(Cl)ccc23)c(C#N)c(-c2ccc([N+](=O)[O-])cc2)n1", "Endpoint Result": 4}
{"Structure Smiles": "CSc1nc(OCCCNc2ccnc3cc(Cl)ccc23)c(C#N)c(-c2ccccc2)n1", "Endpoint Result": 4}
{"Structure Smiles": "CSc1nc(NCCCNc2ccnc3cc(Cl)ccc23)c(C#N)c(-c2ccccc2)n1", "Endpoint Result": 100}
{"Structure Smiles": "N#Cc1c(NCCCCNc2ccnc3cc(Cl)ccc23)nc(N2CCOCC2)nc1-c1ccccc1", "Endpoint Result": 20}
{"Structure Smiles": "COc1ccc(-c2nc(SC)nc(NCCCCNc3ccnc4cc(Cl)ccc34)c2C#N)cc1", "Endpoint Result": 20}

Ask: What value of MCC has been recorded for this entry: CSc1nc(NCCCCNc2ccnc3cc(Cl)ccc23)c(C#N)c(-c2ccc(C)cc2)n1
Result: 100

Ask: What value of measured MCC is listed for COc1ccc(-c2nc(SC)nc(NCCCCNc3ccnc4cc(Cl)ccc34)c2C#N)cc1OC ?
Result: 100

Ask: Give its MCC value. Item: CSc1nc(NCCCCNc2ccnc3cc(Cl)ccc23)c(C#N)c(-c2ccccc2)n1
Result: 100

Ask: What MCC value was documented for this compound, CSc1nc(NCCCCNc2ccnc3cc(Cl)ccc23)c(C#N)c(-c2cccc([N+](=O)[O-])c2)n1 ?
Result: 100

Ask: For the compound shown here, COc1cc(-c2nc(SC)nc(NCCCCNc3ccnc4cc(Cl)ccc34)c2C#N)cc(OC)c1OC , give the reported MCC.
Result: 20

---

Tested on: Vesicular stomatitis virus
Experimental Details: microbe, parasite or virus in culture
Run Conditions: HEL
pEC50: −log10 of the molar value.
# pEC50 per entry

Examples with their reported pEC50 follow.
{"Structure Smiles": "CSc1nc(OCCCNc2ccnc3cc(Cl)ccc23)c(C#N)c(-c2ccccc2)n1", "pEC50": "< 6.10"}
{"Structure Smiles": "COc1ccc(-c2nc(SC)nc(NCCCCNc3ccnc4cc(Cl)ccc34)c2C#N)cc1OC", "pEC50": "< 4.00"}
{"Structure Smiles": "CSc1nc(-c2ccccc2)c(C#N)c(N2CCN(c3ccnc4cc(Cl)ccc34)CC2)n1", "pEC50": "< 4.00"}
{"Structure Smiles": "CSc1nc(NCCCNc2ccnc3cc(Cl)ccc23)c(C#N)c(-c2ccccc2)n1", "pEC50": "< 5.40"}
{"Structure Smiles": "COc1ccc(-c2nc(SC)nc(NCCCCNc3ccnc4cc(Cl)ccc34)c2C#N)cc1", "pEC50": "< 6.10"}

Ask: # returns recorded pEC50 (system: Vesicular stomatitis virus) for N#Cc1c(NCCCCNc2ccnc3cc(Cl)ccc23)nc(N2CCOCC2)nc1-c1ccccc1
Result: < 5.40

Ask: # query: pEC50 | item CSc1nc(NCCCCNc2ccnc3cc(Cl)ccc23)c(C#N)c(-c2ccccc2)n1 | system: Vesicular stomatitis virus
Result: < 6.10

Ask: I'm curious: which pEC50 was measured for CSc1nc(-c2ccc([N+](=O)[O-])cc2)c(C#N)c(N2CCN(c3ccnc4cc(Cl)ccc34)CC2)n1 tested on Vesicular stomatitis virus?
Result: < 4.00

Ask: Which measured pEC50 belongs to CSc1nc(NCCCCNc2ccnc3cc(Cl)ccc23)c(C#N)c(-c2cccc([N+](=O)[O-])c2)n1 , tested on Vesicular stomatitis virus?
Result: < 5.40
